Reported IC50 values for a set of compounds
protocol notes: Inhibition of cyclooxygenase in Wistar rat peritoneal leukocytes
Format: cell-based

{"structure smiles string": "COc1ccc(-c2cc(=O)c3c(O)cc(O)cc3o2)cc1", "IC50": "77.5 µM"}
{"structure smiles string": "C=C1CC/C=C(\\C)C(=O)[C@H](O)[C@@H]2[C@@H]1CC2(C)C", "IC50": "> 200 µM"}
{"structure smiles string": "C=C1CC/C=C(\\C)C(=O)C[C@@H]2[C@@H]1CC2(C)C", "IC50": "> 200 µM"}
{"structure smiles string": "C=C1CC/C=C(\\C)C(=O)[C@H](OC(C)=O)[C@@H]2[C@@H]1CC2(C)C", "IC50": "13.7 µM"}
{"structure smiles string": "CC(/C=C/C=C(\\C)C(=O)O)=C\\C=C\\C=C(C)\\C=C\\C=C(/C)C(=O)O[C@H]1O[C@H](CO[C@@H]2O[C@H](CO)[C@@H](O)[C@H](O)[C@H]2O)[C@@H](O)[C@H](O)[C@H]1O", "IC50": "28.2 µM"}

---

measured on: Polyunsaturated fatty acid 5-lipoxygenase (Rattus norvegicus) (UniProt P12527)
Sequence (P12527 whole entry): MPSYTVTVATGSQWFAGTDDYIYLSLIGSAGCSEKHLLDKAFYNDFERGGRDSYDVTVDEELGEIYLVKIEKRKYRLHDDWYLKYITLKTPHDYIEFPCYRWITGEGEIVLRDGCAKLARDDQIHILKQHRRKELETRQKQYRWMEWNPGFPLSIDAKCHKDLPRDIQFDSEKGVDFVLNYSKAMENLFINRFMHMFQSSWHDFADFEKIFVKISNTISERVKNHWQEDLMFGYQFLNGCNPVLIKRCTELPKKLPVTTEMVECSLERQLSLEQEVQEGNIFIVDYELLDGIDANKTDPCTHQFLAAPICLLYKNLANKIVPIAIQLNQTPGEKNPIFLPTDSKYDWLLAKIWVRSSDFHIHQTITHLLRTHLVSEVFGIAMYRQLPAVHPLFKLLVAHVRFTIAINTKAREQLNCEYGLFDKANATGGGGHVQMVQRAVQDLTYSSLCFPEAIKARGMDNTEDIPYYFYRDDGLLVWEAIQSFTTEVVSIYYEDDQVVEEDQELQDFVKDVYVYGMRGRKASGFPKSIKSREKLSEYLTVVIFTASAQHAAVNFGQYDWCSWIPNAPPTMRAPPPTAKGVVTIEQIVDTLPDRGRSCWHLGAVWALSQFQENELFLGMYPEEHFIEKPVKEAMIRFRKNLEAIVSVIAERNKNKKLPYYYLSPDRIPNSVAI
protocol notes: Inhibition of 5-lipoxygenase in Wistar rat peritoneal leukocytes at 50 ug/mL
Format: cell-based

{"structure smiles string": "C=C1CC/C=C(\\C)C(=O)C[C@@H]2[C@@H]1CC2(C)C", "measured on": "Polyunsaturated fatty acid 5-lipoxygenase (Rattus norvegicus) (UniProt P12527)", "inhibition": "16.4%"}
{"structure smiles string": "COc1ccc2c(c1)c(CC(=O)O)c(C)n2C(=O)c1ccc(Cl)cc1", "measured on": "Polyunsaturated fatty acid 5-lipoxygenase (Rattus norvegicus) (UniProt P12527)", "inhibition": "0%"}
{"structure smiles string": "O=C(O)c1ccc(OCCn2ccnc2)cc1", "measured on": "Polyunsaturated fatty acid 5-lipoxygenase (Rattus norvegicus) (UniProt P12527)", "inhibition": "0%"}
{"structure smiles string": "CCn1c(=O)ccc2cc(COc3cc(F)cc(C4(OC)CCOCC4)c3)ccc21", "measured on": "Polyunsaturated fatty acid 5-lipoxygenase (Rattus norvegicus) (UniProt P12527)", "inhibition": "100%"}
{"structure smiles string": "C=C1CCC[C@H](C)C(=O)[C@H](OC(C)=O)[C@@H]2[C@@H]1CC2(C)C", "measured on": "Polyunsaturated fatty acid 5-lipoxygenase (Rattus norvegicus) (UniProt P12527)", "inhibition": "0%"}
{"structure smiles string": "C[C@H]1O[C@H](O[C@@H]2[C@@H](O)[C@H](OCCc3ccc(O)c(O)c3)O[C@H](CO[C@H]3O[C@@H](CO)[C@H](O)[C@@H](O)[C@@H]3O)[C@H]2OC(=O)/C=C/c2ccc(O)c(O)c2)[C@@H](O)[C@@H](O)[C@@H]1O", "measured on": "Polyunsaturated fatty acid 5-lipoxygenase (Rattus norvegicus) (UniProt P12527)", "inhibition": "0%"}
{"structure smiles string": "C=C1CC/C=C(\\C)C(=O)[C@H](OC(C)=O)[C@@H]2[C@@H]1CC2(C)C", "measured on": "Polyunsaturated fatty acid 5-lipoxygenase (Rattus norvegicus) (UniProt P12527)", "inhibition": "98%"}
{"structure smiles string": "C=C1CC/C=C(\\C)C(=O)[C@H](O)[C@@H]2[C@@H]1CC2(C)C", "measured on": "Polyunsaturated fatty acid 5-lipoxygenase (Rattus norvegicus) (UniProt P12527)", "inhibition": "49.3%"}
